# assay details: Stability in rat plasma assessed as parent compound remaining at 10 uM measured after 360 mins by UPLC-MS/MS analysis
# Format: ADME, cell-free
# test settings: read-out: Stabilty
reported metric: remaining at 6 h, 10 µM (%)

compound: COc1cc2c(cc1O)CCC(C)(CC(=O)NCCCCCCCCNc1c3c(nc4cc(Cl)ccc14)CCCC3)O2 (stereo unspecified)
reading: 98

* * *

pIC50: −log10 of the molar value.
Here's what we have: pIC50 numbers for Acetylcholinesterase (Homo sapiens).

molecule: COc1cc2c(cc1OCc1ccccc1)CCC(C)(CC(=O)NCCCCCCNc1c3c(nc4cc(Cl)ccc14)CCCC3)O2 (stereo not drawn)
pIC50: 7.96
//
molecule: COc1cc2c(cc1O)CCC(C)(CC(=O)NCCCCCCCCNc1c3c(nc4cc(Cl)ccc14)CCCC3)O2 (stereo not drawn)
pIC50: 8.43
//
molecule: COc1cc2c(cc1O)CCC(C)(CCNCCCCCCCNc1c3c(nc4cc(Cl)ccc14)CCCC3)O2 (stereo not drawn)
pIC50: 9.36
